Structures can show the parent of a compound that is named as a salt.
We begin with a simple list: items and their reported melting point.

Here are 5 compounds together with their reported answers.
COMPOUND: C[C@H](COC(=O)CCc1ccccc1OCc1cccc(Oc2ccccc2)c1)OP(=O)(O)OC[C@H](N)C(=O)O (as salt: TFA)
melting point: 143.5 to 144.5 °C
//
COMPOUND: C[C@H](OP(=O)(O)O[C@H]1CCCO[C@@H]1COC(=O)CCc1ccccc1OCc1cccc(Oc2ccccc2)c1)[C@H](N)C(=O)O (as salt: TFA)
melting point: 42 to 54 °C
//
COMPOUND: CCCCCCCCCCCOc1ccccc1CCC(=O)O[C@H]1COCC[C@@H]1OP(=O)(O)OC[C@H](N)C(=O)O (as salt: TFA)
melting point: 132.8 to 134.8 °C
//
COMPOUND: CCCCCCCC/C=C\CCCCCCCC(=O)OC[C@@H](COC)OP(=O)(O)OC[C@H](N)C(=O)O (as salt: TFA)
melting point: 192.5 to 196 °C
//
COMPOUND: CCCCCCCCCCCOc1ccc(C(C)(C)C)cc1CCC(=O)O[C@H]1COCC[C@@H]1OP(=O)(O)OC[C@H](N)C(=O)O (as salt: TFA)
melting point: 144 to 144.5 °C

What measured melting point goes with CCCCCCCC/C=C\CCCCCCCC(=O)OC[C@H]1OCCC[C@H]1OP(=O)(O)OC[C@H](N)C(=O)O (as salt: TFA) ?
70 to 80 °C

# iterate: C[C@H](OP(=O)(O)OC[C@H]1OCCC[C@H]1OC(=O)CCc1ccccc1OCc1cccc(Oc2ccccc2)c1)[C@H](N)C(=O)O (as salt: TFA)
62 to 72 °C

# iterate: CCCCCCCCCCCOc1ccccc1CCC(=O)OC[C@H]1OCCC[C@@H]1OP(=O)(O)OC[C@H](N)C(=O)O (as salt: TFA)
70 to 86 °C

# iterate: N[C@@H](COP(=O)(O)OC[C@H]1OCCC[C@H]1OC(=O)CCc1ccccc1OCc1cccc(Oc2ccccc2)c1)C(=O)O (as salt: TFA)
65 to 75 °C

# iterate: CCCCCCCCCCCOc1ccccc1CCC(=O)O[C@@H]1COCC[C@H]1OP(=O)(O)OC[C@H](N)C(=O)O (as salt: TFA)
122 to 123 °C

# iterate: CCCCCCCC/C=C\CCCCCCCC(=O)OC[C@@H](COCC)OP(=O)(O)OC[C@H](N)C(=O)O (as salt: TFA)
130.2 to 131 °C

# iterate: COC[C@H](COC(=O)CCc1ccccc1OCc1cccc(Oc2ccccc2)c1)OP(=O)(O)OC[C@H](N)C(=O)O (as salt: TFA)
51.5 to 53.5 °C

# iterate: CCCCCCCC/C=C\CCCCCCCC(=O)OC[C@@H](COCc1ccccc1)OP(=O)(O)OC[C@H](N)C(=O)O (as salt: TFA)
118.5 to 122 °C

# iterate: C[C@H](OP(=O)(O)O[C@@H]1CCCO[C@@H]1COC(=O)CCc1ccccc1OCc1cccc(Oc2ccccc2)c1)[C@H](N)C(=O)O (as salt: TFA)
52 to 60 °C

# iterate: C[C@H](OP(=O)(O)OC[C@H]1OCCC[C@@H]1OC(=O)CCc1ccccc1OCc1cccc(Oc2ccccc2)c1)[C@H](N)C(=O)O (as salt: TFA)
75 to 86 °C
